System: E. cloacae 34654
PROCEDURE_DETAILS: MIC determination, broth microdilution (CLSI)
Format: cell-based
RUN_CONDITIONS: Enterobacter cloacae, 34654, strain 3
Measured MIC accompanies every entry in the list below.
Write it as a number; the unit µg/mL goes unstated.

• CC1(C)[C@H](NC(=O)/C(=N\O[C@@H](COc2ccc(C(=N)N[C@H]3CCNC3)cc2)C(=O)O)c2csc(N)n2)C(=O)N1OS(=O)(=O)O = 0.125
• C[C@H]1[C@H](NC(=O)/C(=N\OCCOc2ccc(C(=N)N)cc2N)c2csc(N)n2)C(=O)N1S(=O)(=O)O = 4

[ask] Given the molecule `C[C@H]1[C@H](NC(=O)/C(=N\OCCOc2ccc(C(=N)NN)cc2)c2csc(N)n2)C(=O)N1S(=O)(=O)O` , write its reported MIC.
[reply] 0.5

[ask] Please report the measured MIC for `CC1(C)[C@H](NC(=O)/C(=N\OCCOc2ccc(C(=N)NCCN)nc2)c2csc(N)n2)C(=O)N1OS(=O)(=O)O`
[reply] 0.5

[ask] Provide only the value of recorded MIC for `C[C@H]1[C@H](NC(=O)/C(=N\OCCCOc2ccc(C(=N)N)cc2)c2csc(N)n2)C(=O)N1S(=O)(=O)O`
[reply] 2

[ask] # return recorded MIC for input `C[C@H]1[C@H](NC(=O)/C(=N\OCCOCc2cc(C(=N)N)cs2)c2csc(N)n2)C(=O)N1S(=O)(=O)O`
[reply] 4
